# ASSAY REMARKS: method code SF-AS, from PMID: 3774812
# ASSAY CONDITIONS: pH 4.0
PROPERTY: logD
Would you mind answering with just the numeric figure?

{"STRUCTURE AS SMILES": "C[C@H](C(=O)O)c1ccc(-c2ccccc2)c(F)c1", "ENDPOINT VALUE": 3.87}

Query: Entry under review: O=C(O)Cc1sc(-c2ccccc2)nc1-c1ccc(Cl)cc1 . Reported logD?
Response: 2.72

* * *

# ASSAY REMARKS: method code SF-GLC, from DOI: 10.1021/je990149u
PROPERTY: logP

Query: Entry under review: CCCCCCCCCCOC(=O)c1ccccc1C(=O)OCCCCCCCCCC . Reported logP?
Response: 9.05

* * *

# ASSAY REMARKS: method code SF, from DOI: 10.1016/0006-2952(91)90449-f, PMID: 1930261
# ASSAY CONDITIONS: pH 2.0
PROPERTY: logD
Would you mind answering with just the numeric figure?

{"STRUCTURE AS SMILES": "CN1C(=O)NC(=O)C(=O)C1=O", "logD": -1.04}

Attention now shifts to the item below.
Query: Entry under review: CN1C(=O)C(=O)C(=O)N(C)C1=O . Reported logD?
Response: -0.57

* * *

PROPERTY: logP

Query: Entry under review: CCc1cccc(C)c1N(C(=O)CCl)C(C)COC (stereo unspecified) . Reported logP?
Response: 3.09

* * *

PROPERTY: logP
Would you mind answering with just the numeric figure?

Query: Entry under review: CN1CC[C@]23c4c5ccc(O)c4O[C@H]2C(=O)CC[C@@]3(O)[C@H]1C5 . Reported logP?
Response: 0.67

* * *

PROPERTY: logP
Would you mind answering with just the numeric figure?

Query: Entry under review: CCNC(=O)c1cccnc1 . Reported logP?
Response: 0.31

Query: Entry under review: CCCNC(=O)c1cccnc1 . Reported logP?
Response: 0.66

Query: Entry under review: NC(=O)c1cccnc1 . Reported logP?
Response: -0.34

* * *

# ASSAY REMARKS: method code SF-HPLC, from DOI: 10.1016/0378-5173(82)90005-9
# ASSAY CONDITIONS: pH 3.0
PROPERTY: logD
Would you mind answering with just the numeric figure?

Some compounds with known logD results, for comparison:
{"STRUCTURE AS SMILES": "O=C1NC(=O)C2(CCCC2)C(=O)N1", "logD": 0.24}
{"STRUCTURE AS SMILES": "O=C1NC(=O)C2(CC2)C(=O)N1", "logD": -0.53}
{"STRUCTURE AS SMILES": "O=C1NC(=O)C2(CCCCCCCCCC2)C(=O)N1", "logD": 3.15}

Attention now shifts to the item below.
Query: Entry under review: O=C1NC(=O)C2(CCCCC2)C(=O)N1 . Reported logD?
Response: 0.91

* * *

# logP annotations
# ASSAY REMARKS: method code SF-GLC, from DOI: 10.1021/es60155a010
Would you mind answering with just the numeric figure?

Some compounds with known logP results, for comparison:
{"COMPOUND": "CCCCC(CC)COP(=O)(OCC(CC)CCCC)OCC(CC)CCCC (stereo not given)", "ENDPOINT VALUE": 4.23}
{"COMPOUND": "CC(C)c1ccc(OP(=O)(Oc2ccccc2)Oc2ccccc2)cc1", "ENDPOINT VALUE": 5.31}
{"COMPOUND": "CC(C)(C)c1ccc(OP(=O)(Oc2ccccc2)Oc2ccccc2)cc1", "ENDPOINT VALUE": 5.12}
{"COMPOUND": "Cc1ccc(OP(=O)(Oc2ccc(C)cc2)Oc2ccc(C)cc2)cc1", "ENDPOINT VALUE": 5.11}

Query: Entry under review: CC(C)CCCCCCCOP(=O)(Oc1ccccc1)Oc1ccccc1 . Reported logP?
Response: 5.44

Reference source: the SangsterLogP compilation
